The following are reported log10 of MIC results, target or system Bacillus cereus ATCC 10702 NCTC 8035.
Hello, just confirming the data are log10 of MIC with units of mg/L.

Consider the reported log10 of MIC for these molecules:
| Molecule | Tgt | log10 of MIC |
| --- | --- | --- |
| O=C(O)c1cn(C2CC2)c2cc(N3CCNCC3)c(F)cc2c1=O [Ciprofloxacin, reference compound] | Bacillus cereus ATCC 10702 NCTC 8035 | -0.30 |
| CCCCCCCCCCCCCCC[P+](C(C)(C)C)(C(C)(C)C)C(C)(C)C [Compound 15a] | Bacillus cereus ATCC 10702 NCTC 8035 | -0.30 |
| CCCCCCC[P+](C(C)(C)C)(C(C)(C)C)C(C)(C)C [Compound 7a] | Bacillus cereus ATCC 10702 NCTC 8035 | 2.10 |
| CCCCCCCCCCC[P+](C(C)(C)C)(C(C)(C)C)C(C)(C)C [Compound 11a] | Bacillus cereus ATCC 10702 NCTC 8035 | 0.28 |
| CCCCCCCCCCCC[P+](C(C)(C)C)(C(C)(C)C)C(C)(C)C [Compound 12a, tri-tert-butyl(n-dodecyl)phosphonium] | Bacillus cereus ATCC 10702 NCTC 8035 | 0.28 |
| CCCCCCCCCCCCCCCC[P+](C(C)(C)C)(C(C)(C)C)C(C)(C)C [Compound 16a] | Bacillus cereus ATCC 10702 NCTC 8035 | 0.28 |
| CCCCCCCCCCCCC[P+](C(C)(C)C)(C(C)(C)C)C(C)(C)C [Compound 13a, tri-tert-butyl(n-tridecyl)phosphonium] | Bacillus cereus ATCC 10702 NCTC 8035 | -0.05 |
| CCCCCCCCCC[P+](C(C)(C)C)(C(C)(C)C)C(C)(C)C [Compound 10a] | Bacillus cereus ATCC 10702 NCTC 8035 | 0.59 |

// moving on: another record for log10 of MIC
Q: Request the reported log10 of MIC associated with CCCCCCCC[P+](C(C)(C)C)(C(C)(C)C)C(C)(C)C [Compound 8a]
Ans: 1.50

* * *

Entries annotated with measured Minimum Bactericidal and Fungicidal Concentration (MBC, MFC), Sa
system: Staphylococcus aureus ATCC 6538P FDA 209P; experiment: Antimicrobial activity, serial dilution technique in Mueller–Hinton Broth 2; type: cell-based; settings: average of three ± SD, - means non-active

Consider the reported Minimum Bactericidal and Fungicidal Concentration (MBC, MFC), Sa for these compounds:
| Compound | Result |
| --- | --- |
| CCCCCCCCCC[P+](C(C)(C)C)(C(C)(C)C)C(C)(C)C [Compound 10b] | 3.9 ± 0.2 µg/mL |
| CCCCCCCCCC[P+](C(C)(C)C)(C(C)(C)C)C(C)(C)C [Compound 10a] | 1.9 ± 0.1 µg/mL |
| CCCCCCCCCCCCCCC[P+](C(C)(C)C)(C(C)(C)C)C(C)(C)C [Compound 15b] | 0.5 ± 0.03 µg/mL |

Q: What reported Minimum Bactericidal and Fungicidal Concentration (MBC, MFC), Sa corresponds to CCCCCCCCCCCCCCCCCCCC[P+](C(C)(C)C)(C(C)(C)C)C(C)(C)C [Compound 20b] on Staphylococcus aureus ATCC 6538P FDA 209P?
Ans: 3.9 ± 0.3 µg/mL

Q: What reported Minimum Bactericidal and Fungicidal Concentration (MBC, MFC), Sa corresponds to CCCCCCCCCCC[P+](C(C)(C)C)(C(C)(C)C)C(C)(C)C [Compound 11a] on Staphylococcus aureus ATCC 6538P FDA 209P?
Ans: 1.9 ± 0.1 µg/mL

Q: What reported Minimum Bactericidal and Fungicidal Concentration (MBC, MFC), Sa corresponds to CCCCCCCCCCCCCCCCCC[P+](C(C)(C)C)(C(C)(C)C)C(C)(C)C [Compound 18a] on Staphylococcus aureus ATCC 6538P FDA 209P?
Ans: 0.9 ± 0.07 µg/mL

Values compiled from paper PMC8744835.
